assay: qHTS Assay for Small Molecule Inhibitors of Mitochondrial Division or Activators of Mitochondrial Fusion; note: nearly all actives have a fitted effect of over 45% in size; conditions: S. cerevisiae fusion-defective mutant growth rescue, CellTiterGlo 48 h; series mostly up to 46.1 µM
The campaign covered roughly 320,000 compounds. About 740 (0.23%) were called active. Not shown: some 2% with an inconclusive outcome. Calls come from the whole dose curve; as a rule, active = well fitted activation curve with a large enough effect; inconclusive = small, poorly fitted or top-dose-only effect; inactive = no such curve, though single readings can be large or run the other way. The sample as a whole holds a higher share of actives than the screen did.
Outcomes: label 1 for active, label 0 for inactive

# molecule, answerLabel
rows = [
    ("CCC(C)(C)n1nnnc1C(c1cccs1)N1CCN(c2nc3ccccc3s2)CC1 (configuration not stated)", "label 1"),
    ("Fc1ccc(Cn2nnnc2C(c2cccs2)N2CCCCCC2)cc1 (configuration not stated)", "label 0"),
    ("CC1CCN(C(=O)c2ccc(CSc3ccc(Cl)cc3)cc2)CC1", "label 0"),
    ("COc1ccc([C@H]2CC(=O)C=C(c3ccc(C)cc3)C2)cc1", "label 0"),
    ("O=C(Nc1ccccc1-c1ccccc1)c1ccccc1[N+](=O)[O-]", "label 0"),
    ("COC(=O)c1cc(S(=O)(=O)NCC2CCN(Cc3ccc(Cl)cc3)CC2)cn1C", "label 0"),
    ("O=S(=O)(NC1CCN(S(=O)(=O)c2ccc3c(c2)OCCO3)CC1)c1c(F)cccc1F", "label 0"),
    ("CCC(C)(C)n1nnnc1C(c1ccc(OC)c(OC)c1)N1CCN(C(=O)c2ccco2)CC1 (configuration not stated)", "label 0"),
    ("Nc1c(C(=O)OCC(=O)Nc2ccc(OC(F)F)cc2)[nH]c(=O)[nH]c1=O", "label 0"),
    ("O=C1C=C(c2cccc(Cl)c2O)C[C@@H](c2ccc(F)cc2)C1", "label 1"),
    ("CN(C)c1ccc(C(CNC(=O)c2ccc(F)cc2)c2c[nH]c3ccccc23)cc1 (configuration not stated)", "label 1"),
    ("Cc1cc(C)cc(C(=O)OCC(=O)NCCNC(=O)COC(=O)c2cc(C)cc(C)c2)c1", "label 0"),
    ("C[C@H](NC(=O)C1CC(=O)N(c2ccc3c(c2)OCCO3)C1)C(=O)N1CCC(C(=O)O)CC1 (some centres not stated)", "label 0"),
    ("O=C(/C=C/c1ccccc1)Oc1coc(CSc2ncccn2)cc1=O", "label 0"),
    ("O=C(O)CCN(Cc1ccccc1)S(=O)(=O)c1c(Cl)cccc1Cl", "label 0"),
    ("Cc1nc(COc2cc3oc(=O)cc(C)c3cc2Cl)cs1", "label 0"),
    ("COc1ccc([C@H]2CC(=O)C=C(c3ccc(CO)cc3)C2)cc1", "label 0"),
    ("C=C(C)C1CC=C(C)/C(=N\\NC(=O)CNc2ccccc2OC)C1 (configuration not stated)", "label 0"),
    ("CN(C)c1nc(N)nc(CSc2nnnn2-c2cccc3ccccc23)n1", "label 0"),
    ("CC(=O)/C(C)=N/O", "label 1"),
    ("COc1cc2ccccc2cc1C(=O)Nc1ccccc1C", "label 0"),
    ("C[C@H](NC(=O)c1ccccc1)C(=O)OCC(=O)c1c[nH]c2ccccc12", "label 0"),
]

---

experiment: qHTS Assay for Small Molecule Inhibitors of Mitochondrial Division or Activators of Mitochondrial Fusion; note: nearly all actives have a fitted effect of over 45% in size; conditions: S. cerevisiae fusion-defective mutant growth rescue, CellTiterGlo 48 h; series mostly up to 46.1 µM
The campaign covered roughly 320,000 compounds. About 740 (0.23%) were called active. Not shown: some 2% with an inconclusive outcome. The call rests on the fitted dose curve; in most records, active means well fitted activation curve with a large enough effect; inconclusive means small, poorly fitted or top-dose-only effect; inactive means no such curve, though single readings can be large or run the other way. What follows is part of a selection rich in actives, with near analogues and random picks from the rest.
Outcomes: active, inactive

# compound, answerLabel
measured = [
    ("Cc1cc(F)ccc1S(=O)(=O)Nc1ncnc2scc(-c3ccc(F)cc3)c12", "inactive"),
    ("CCCCCc1ccc(-c2ccc(C(=O)O)cc2)nc1", "active"),
    ("CCc1nc2sc(C(=O)O)c(N)c2c2c1CCCC2", "inactive"),
    ("O=S(=O)(c1cccc(C(F)(F)F)c1)N1CCN(c2cnccn2)CC1", "inactive"),
    ("Cc1ccc(SCCC(=O)OCC(=O)Nc2ncc(Cl)cc2Cl)cc1", "inactive"),
    ("CSCCC(NC(=O)c1ccco1)C(=O)Nc1cc(C)ccn1 (stereo unspecified)", "inactive"),
    ("Cc1ccc2c(N)c(C(=O)c3ccccc3)sc2n1", "inactive"),
    ("Cc1ccc(NC(=O)Cn2nnc3sc4c(c3c2=O)CCC(C)C4)cc1 (stereo unspecified)", "inactive"),
    ("CC(=O)Nc1ccc(C(=O)Nc2cccc(S(=O)(=O)NC3=NCCC3)c2)cc1", "inactive"),
    ("CCCCCc1ccc(-c2cn(Cc3ccc4ccccc4c3)nn2)cc1", "inactive"),
    ("NS(=O)(=O)c1cccc(NC(=O)CSc2nc3ccccc3n2-c2ccccc2)c1", "inactive"),
]
